# measurement.target: human PGI2 receptors (hIP) (Homo sapiens, UniProt P43119)
# Construct: expressed in transfected cells; host or cells: CHO-K1
# Sequence (P43119 whole entry): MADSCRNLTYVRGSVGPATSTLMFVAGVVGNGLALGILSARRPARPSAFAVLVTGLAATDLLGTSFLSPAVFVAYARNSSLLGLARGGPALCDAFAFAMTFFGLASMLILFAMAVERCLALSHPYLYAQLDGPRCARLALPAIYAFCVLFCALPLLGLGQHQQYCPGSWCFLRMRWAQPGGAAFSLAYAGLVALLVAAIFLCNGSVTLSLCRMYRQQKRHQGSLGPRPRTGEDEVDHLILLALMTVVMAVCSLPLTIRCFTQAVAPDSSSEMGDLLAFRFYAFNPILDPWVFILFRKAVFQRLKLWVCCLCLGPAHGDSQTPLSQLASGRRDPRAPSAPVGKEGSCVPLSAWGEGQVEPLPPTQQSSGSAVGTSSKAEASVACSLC
# test.details: Method B: positive allosteric modulator activity, cAMP in CHO/hIP cells with 1 nM epoprostenol
# Assay type: cell-based
# settings: cAMP relative to 1 nM epoprostenol alone, test concentration 5 uM
property.measured: T/C

Quick check: T/C of CC1(n2nnnc2C(c2ccccc2)N2CCc3ccccc3C2)CCCCC1 (stereo not shown) ? 116.3%

Quick check: T/C of COc1ccccc1C(c1nnnn1C1(C)CCCCCC1)N1CCc2ccccc2C1 (stereo not shown) ? 144.3%

Quick check: T/C of COc1ccccc1C(c1nnnn1C1C2CC3CC(C2)CC1C3)N1CCc2ccccc2C1 (stereo not shown) ? 126.3%

Quick check: T/C of Cc1ccc(C(c2nnnn2C(C)(C)C)N2CCc3ccccc3C2)cc1 (stereo not shown) ? 100.6%

----------
# measurement.target: human PGI2 receptors (hIP) (Homo sapiens)
# Construct: expressed in transfected cells; host or cells: CHO-K1
# test.details: Method C: effect on epoprostenol-cAMP production curve in CHO/hIP cells (left shift value)
# Assay type: cell-based
# settings: Table 5, concentration of test compound that halves the EC50 of epoprostenol
Exercise: for every item that follows, state its recorded left shift value.
# number only, unit µM dropped from output

Quick check: left shift value of COc1ccccc1C(c1nnnn1C(C)(C)C)N1CCc2sccc2C1 (stereo not drawn) [Example 60] ? 10.5

Quick check: left shift value of CC(C)(C)n1nnnc1C(c1ccccc1Br)N1CCc2sccc2C1 (stereo not drawn) [Example 65] ? 66.2

Quick check: left shift value of CC(C)(C)n1nnnc1C(c1ccccc1F)N1CCc2sccc2C1 (stereo not drawn) [Example 69] ? 20.6

Quick check: left shift value of COc1ccccc1C(c1nnnn1C(C)(C)C)N1CCC2CCCCC2C1 (stereo not drawn) [Example 82] ? 6.2

Quick check: left shift value of COc1ccsc1C(c1nnnn1C(C)(C)C)N1CCc2sccc2C1 (stereo not drawn) [Example 72] ? 3.2

Quick check: left shift value of CSc1ccccc1C(c1nnnn1C(C)(C)C)N1CCc2sccc2C1 (stereo not drawn) [Example 70] ? 14.8

Quick check: left shift value of COc1ccc(C(c2nnnn2C(C)(C)C)N2CCc3sccc3C2)cc1 (stereo not drawn) [Example 63] ? 34.9

Quick check: left shift value of CC(C)(C)n1nnnc1C(c1ccsc1)N1CCc2sccc2C1 (stereo not drawn) [Example 68] ? 15.5

Quick check: left shift value of CC(C)(C)n1nnnc1C(c1ccccc1)N1CCc2sccc2C1 (stereo not drawn) [Example 59] ? 16.1

----------
# measurement.target: human PGI2 receptors (hIP) (Homo sapiens, UniProt P43119)
# Construct: expressed in transfected cells; host or cells: CHO-K1
# test.details: Method B: positive allosteric modulator activity, cAMP in CHO/hIP cells with 1 nM epoprostenol
# Assay type: cell-based
# settings: cAMP relative to 1 nM epoprostenol alone, test concentration 10 uM
# Protocol: The positive allosteric modulator activity of a test compound was measured as a change in the amount of intracellular cyclic AMP (cAMP) in the presence of 1 nM of the IP agonist epoprostenol (manufactured by GlaxoSmithKline), using CHO-K1 cells (CHO/hIP cells) in which human PGI2 receptors (hIP) are stably expressed. […]
Exercise: for every item that follows, state its recorded T/C.
# number only, unit % dropped from output

Quick check: T/C of CC(C)(C)n1nnnc1C(c1ccccc1F)N1CCc2ccc(Cl)cc2C1 (stereo not shown) ? 104.6

Quick check: T/C of COc1ccccc1C(C)(c1nnnn1C(C)(C)C)N1CCc2ccccc2C1 (stereo not shown) ? 72.3

Quick check: T/C of COc1ncccc1C(c1nnnn1C(C)(C)C)N1CCc2ccccc2C1 (stereo not shown) ? 132.1

Quick check: T/C of CC(C)(C)n1nnnc1C(c1ccc(O)cc1)N1CCc2ccccc2C1 (stereo not shown) ? 156.4

Quick check: T/C of CC(C)(C)n1nnnc1C(c1ccccc1N)N1CCc2ccccc2C1 (stereo not shown) [Example 26] ? 105.5

Quick check: T/C of Cc1ccccc1C(c1nnnn1C1(C)CCCCCC1)N1CCc2ccccc2C1 (stereo not shown) ? 106.2

Quick check: T/C of CC(C)(C)n1nnnc1C(c1c[nH]c2ccccc12)N1CCc2ccccc2C1 (stereo not shown) ? 172.6

Quick check: T/C of CC(C)(C)n1nnnc1C(c1ccccc1[N+](=O)[O-])N1CCc2ccc(F)cc2C1 (stereo not shown) ? 100.4

Quick check: T/C of CC(C)(C)n1nnnc1C(c1cc2ccccc2[nH]1)N1CCc2ccccc2C1 (stereo not shown) ? 89.3

Quick check: T/C of CC(C)(C)n1nnnc1C(c1ccccc1OCc1ccccc1)N1CCc2ccccc2C1 (stereo not shown) ? 151.7

Quick check: T/C of Cc1ccccc1C(c1nnnn1C(C)(C)C)N1CCc2ccccc2C1 (stereo not shown) [Example 11] ? 95

Quick check: T/C of CC(C)(C)n1nnnc1C(c1ccccc1N)N1CCc2ccccc2C1 (stereo not shown) [Example 58] ? 102.7

Quick check: T/C of COc1ccc(C(c2nnnn2C(C)(C)C)N2CCc3ccccc3C2)c(OC)c1 (stereo not shown) ? 155.2

Quick check: T/C of CC(C)(C)n1nnnc1C(c1ccccc1O)N1CCc2ccccc2C1 (stereo not shown) ? 256.5

Quick check: T/C of COc1ccccc1C(c1nnnn1C1(C)CCCCC1)N1CCc2ccccc2C1 (stereo not shown) ? 229.7

Quick check: T/C of COc1ccc(C(c2nnnn2C(C)(C)C)N2CCc3ccccc3C2)c(F)c1 (stereo not shown) ? 184.2

Quick check: T/C of CC(C)(C)n1nnnc1C(c1ccco1)N1CCc2ccccc2C1 (stereo not shown) ? 119.7

Quick check: T/C of CC(C)(C)n1nnnc1C(c1ccc(Cl)cc1)N1CCc2ccccc2C1 (stereo not shown) ? 117.0

Quick check: T/C of CSc1ccccc1C(c1nnnn1C(C)(C)C)N1CCc2ccccc2C1 (stereo not shown) ? 218.3

----------
# measurement.target: human PGI2 receptors (hIP) (Homo sapiens)
# Construct: expressed in transfected cells; host or cells: CHO-K1
# test.details: Method C: effect on epoprostenol-cAMP production curve in CHO/hIP cells (left shift value)
# Type: cell-based
# settings: Table 4, concentration of test compound that halves the EC50 of epoprostenol
Decision: left shift value compared against 20 µM; not below it gives y, below it gives n.

Say whether Cc1ccccc1C(c1nnnn1C(C)(C)C)N1CCc2c(Cl)cccc2C1 (stereo not drawn) shows left shift value of 20 µM or more. n

Say whether COc1ccccc1C(c1nnnn1C1(C)CCCC1)N1CCc2ccccc2C1 (stereo not drawn) shows left shift value of 20 µM or more. n

Say whether CC(C)(C)n1nnnc1C(c1ccoc1)N1CCc2ccccc2C1 (stereo not drawn) shows left shift value of 20 µM or more. n

Say whether COc1ccccc1C(c1nnnn1C1(C)CCCCCC1)N1CCc2ccccc2C1 (stereo not drawn) shows left shift value of 20 µM or more. n

Say whether CC(C)(C)n1nnnc1C(c1ccccc1N)N1CCc2ccccc2C1 (stereo not drawn) [Example 58] shows left shift value of 20 µM or more. y

Say whether CC(C)(C)n1nnnc1C(c1ccc[nH]1)N1CCc2ccccc2C1 (stereo not drawn) shows left shift value of 20 µM or more. y

Say whether COc1cc(F)ccc1C(c1nnnn1C(C)(C)C)N1CCc2ccccc2C1 (stereo not drawn) shows left shift value of 20 µM or more. n

Say whether CCCOc1ccccc1C(c1nnnn1C(C)(C)C)N1CCc2ccccc2C1 (stereo not drawn) shows left shift value of 20 µM or more. n

Say whether COc1cccc(C(c2nnnn2C(C)(C)C)N2CCc3ccccc3C2)c1 (stereo not drawn) shows left shift value of 20 µM or more. y

----------
# measurement.target: human PGI2 receptors (hIP) (Homo sapiens)
# Construct: expressed in transfected cells; host or cells: CHO-K1
# test.details: Method C: effect on epoprostenol-cAMP production curve in CHO/hIP cells (left shift value)
# Assay type: cell-based
# settings: Table 5, concentration of test compound that halves the EC50 of epoprostenol
Decision: left shift value compared against 10 µM; not below it gives class 1, below it gives class 0.

Say whether COc1ccsc1C(c1nnnn1C1(C)CCCCC1)N1CCc2sccc2C1 (stereo not drawn) shows left shift value of 10 µM or more. class 0

Say whether CC(C)(C)n1nnnc1C(c1nccs1)N1CCc2ccccc2C1 (stereo not drawn) shows left shift value of 10 µM or more. class 1

Say whether COc1ccccc1C(c1nnnn1C1(C)CCCCC1)N1CCc2sccc2C1 (stereo not drawn) shows left shift value of 10 µM or more. class 0

Say whether CC1(n2nnnc2C(c2cccc(F)c2O)N2CCc3ccccc3C2)CCCCC1 (stereo not drawn) shows left shift value of 10 µM or more. class 1

Say whether COc1c(F)cccc1C(c1nnnn1C(C)(C)C)N1CCc2ccccc2C1 (stereo not drawn) shows left shift value of 10 µM or more. class 1

Say whether CC1(n2nnnc2C(c2cccs2)N2CCc3sccc3C2)CCCCC1 (stereo not drawn) shows left shift value of 10 µM or more. class 0

Say whether CC(C)(C)n1nnnc1C(c1ccc[nH]1)N1CCc2sccc2C1 (stereo not drawn) shows left shift value of 10 µM or more. class 1

Say whether CC1(n2nnnc2C(c2ccccc2O)N2CCc3ccccc3C2)CCCCC1 (stereo not drawn) shows left shift value of 10 µM or more. class 0

Say whether CC(C)(C)n1nnnc1C(c1cccs1)N1CCc2sccc2C1 (stereo not drawn) shows left shift value of 10 µM or more. class 1
